- Tested on: HT-22
- ASSAY NAME: Neuroprotective activity in mouse HT22 cells assessed as reduction of amyloid beta (1 to 42)-induced cytotoxicity by measuring green to red fluorescence ratio using JC1 staining at 10 uM after 10 mins relative to amyloid beta (1 to 42) treated control
- Assay type: functional
ASSAY METRIC: Ratio
Answers are plain numbers.

> print(dat)
                                item.smiles  observed.result
1  CN(C)c1ccc(-c2cc3cc(/C=C/C(=O)O)cc(O)c3o2)cc1            123.2
2  COc1ccc(-c2cc3cc(/C=C/C(=O)O)cc(O)c3o2)cc1O            122.1
3  COc1cc(-c2cc3cc(/C=C/C(=O)O)cc(OC)c3o2)ccc1N(C)C            104.2
4  CN(C)c1ccc(-c2cc3cc(/C=C/C(=O)O)cc(O)c3o2)cc1F            115.7
5  COc1cc(-c2cc3cc(/C=C/C(=O)O)cc(O)c3o2)ccc1N(C)C            113.4
6  COc1cc(/C=C/C(=O)O)cc2cc(-c3ccc(N(C)C)c(F)c3)oc12            103.1
7  COc1cc(/C=C/C(=O)O)cc2cc(-c3ccc(N(C)C)cc3)oc12             90.3

Read the next record carefully.
Requested read-out: Ratio. Entry: COc1cc(-c2cc3cc(/C=C/C(=O)O)cc(O)c3o2)ccc1O 115.9
